# test description: 4-week repeat-dose toxicity/TK study in rats
# Assay type: in vivo, Sprague Dawley rats
# measurement parameters: male, Sprague Dawley (Crl: CD (SD)), rat, plasma, po, 100 mg/kg/day, day 28, PO 100 mg/kg/day, Male
observed property: Cmax (ng/mL)
Report the value in ng/mL with no unit label.

Please look up its Cmax: C[C@]12CC[C@@H]3c4ccc(B(O)O)cc4C[C@@H](CCCCCCCCC[S+]([O-])CCCC(F)(F)C(F)(F)F)[C@H]3[C@@H]1CC[C@@H]2O (stereo partly shown)
2840

----------
# Tested on: CYP1A2
# test description: CYP induction (enzyme activity) in cryopreserved human hepatocytes, CYP1A2
# measurement parameters: human, plated cryopreserved human hepatocytes, Fold Induction, donor two, 30 µM
observed property: fold induction at 72 h, 30 µM
Kindly provide the number alone.

Please look up its fold induction at 72 h, 30 µM: CCOC(=O)c1ncn2c1CN(C)C(=O)c1cc(F)ccc1-2 [Flumazenil, flumazenil, reference compound]
1.06
